These data points were gathered from ChEMBL document CHEMBL1145941.

System: UACC-62
Experiment: Cytotoxicity against human melanoma UACC-62 cancer cell lines.
Format: functional
Assign labels as follows, please: y for GI50 below 4000 nM; n for GI50 equal to or exceeding 4000 nM.

Req: Given the entry `COc1cc2c3c(n(C)c(=O)c2cc1OC)-c1cc2c(cc1C3=O)OCO2` , would its reported GI50 be below 4000 nM?
Resp: n

Req: Given the entry `COc1cc2c3c(n(CCCN(CCO)CCO)c(=O)c2cc1OC)-c1cc2c(cc1C3=O)OCO2.Cl` , would its reported GI50 be below 4000 nM?
Resp: y

Req: Given the entry `C[C@@]1(O)C(=O)OCc2c1cc1n(c2=O)Cc2cc3ccccc3nc2-1` , would its reported GI50 be below 4000 nM?
Resp: y

Req: Given the entry `COc1cc2c3c(n(CCCNCCN)c(=O)c2cc1OC)-c1cc2c(cc1C3=O)OCO2.Cl.Cl` , would its reported GI50 be below 4000 nM?
Resp: y

Req: Given the entry `COc1cc2c3c(n(CCN(C)C)c(=O)c2cc1OC)-c1cc2c(cc1C3=O)OCO2.O=CO` , would its reported GI50 be below 4000 nM?
Resp: y

Req: Given the entry `COc1cc2c3c(n(CCCNCC(OC)OC)c(=O)c2cc1OC)-c1cc2c(cc1C3=O)OCO2` , would its reported GI50 be below 4000 nM?
Resp: y

Req: Given the entry `COc1cc2c3c(n(CCCNCCCNCCN)c(=O)c2cc1OC)-c1cc2c(cc1C3=O)OCO2.Cl.Cl.Cl` , would its reported GI50 be below 4000 nM?
Resp: n

Req: Given the entry `COc1cc2c3c(n(CCCOC(=O)C(F)(F)F)c(=O)c2cc1OC)-c1cc2c(cc1C3=O)OCO2` , would its reported GI50 be below 4000 nM?
Resp: y

Req: Given the entry `COc1cc2c3c(n(CCCNCCCNCCCN)c(=O)c2cc1OC)-c1cc2c(cc1C3=O)OCO2.Cl.Cl.Cl` , would its reported GI50 be below 4000 nM?
Resp: n

Req: Given the entry `COc1cc2c3c(n(CCCN(C)C)c(=O)c2cc1OC)-c1cc2c(cc1C3=O)OCO2` , would its reported GI50 be below 4000 nM?
Resp: y

Req: Given the entry `COc1cc2c3c(n(CCCNCCCN)c(=O)c2cc1OC)-c1cc2c(cc1C3=O)OCO2` , would its reported GI50 be below 4000 nM?
Resp: y

---

Test system: Panel (Carcinoma cell lines)
Assay: Mean graph midpoint for growth inhibition of all human cancer cell lines.
Assay type: functional
Design: unit: µM
Class assignment keyed on MGM, ranges LOW: < 0.3; MID: ≥ 0.3 and < 3; HIGH: ≥ 3

Req: Lab log: `COc1cc2c3c(n(CCCN(CCO)CCO)c(=O)c2cc1OC)-c1cc2c(cc1C3=O)OCO2.Cl` — assign MGM category
Resp: LOW

Req: Lab log: `COc1cc2c3c(n(CCCNCCCNCCCNCCCN)c(=O)c2cc1OC)-c1cc2c(cc1C3=O)OCO2.Cl.Cl.Cl.Cl` — assign MGM category
Resp: MID

Req: Lab log: `COc1cc2c3c(n(CCCNCCNCCN)c(=O)c2cc1OC)-c1cc2c(cc1C3=O)OCO2.Cl.Cl.Cl` — assign MGM category
Resp: MID

Req: Lab log: `COc1cc2c3c(n(CCCNCCCNCCCN)c(=O)c2cc1OC)-c1cc2c(cc1C3=O)OCO2.Cl.Cl.Cl` — assign MGM category
Resp: HIGH

Req: Lab log: `COc1cc2c3c(n(CCCN(C)C)c(=O)c2cc1OC)-c1cc2c(cc1C3=O)OCO2` — assign MGM category
Resp: MID

Req: Lab log: `COc1cc2c3c(n(CCCOC(=O)C(F)(F)F)c(=O)c2cc1OC)-c1cc2c(cc1C3=O)OCO2` — assign MGM category
Resp: LOW

Req: Lab log: `COc1cc2c3c(n(CCCNCCCNCCN)c(=O)c2cc1OC)-c1cc2c(cc1C3=O)OCO2.Cl.Cl.Cl` — assign MGM category
Resp: HIGH

Req: Lab log: `COc1cc2c3c(n(CCN)c(=O)c2cc1OC)-c1cc2c(cc1C3=O)OCO2.Cl` — assign MGM category
Resp: MID

Req: Lab log: `COc1cc2c3c(n(CCN(C)C)c(=O)c2cc1OC)-c1cc2c(cc1C3=O)OCO2.O=CO` — assign MGM category
Resp: HIGH

Req: Lab log: `COc1cc2c3c(n(CCCNCC(OC)OC)c(=O)c2cc1OC)-c1cc2c(cc1C3=O)OCO2` — assign MGM category
Resp: MID

Req: Lab log: `COc1cc2c3c(n(CCCNCCCN)c(=O)c2cc1OC)-c1cc2c(cc1C3=O)OCO2` — assign MGM category
Resp: HIGH

Req: Lab log: `COc1cc2c3c(n(C)c(=O)c2cc1OC)-c1cc2c(cc1C3=O)OCO2` — assign MGM category
Resp: HIGH

Req: Lab log: `COc1cc2c3c(n(CCCNCCN)c(=O)c2cc1OC)-c1cc2c(cc1C3=O)OCO2.Cl.Cl` — assign MGM category
Resp: MID

Req: Lab log: `C[C@@]1(O)C(=O)OCc2c1cc1n(c2=O)Cc2cc3ccccc3nc2-1` — assign MGM category
Resp: LOW

---

Please go through the items and note down their GI50.
Tested on: UACC-62
Assay: Cytotoxicity against human melanoma UACC-62 cancer cell lines.
Type: functional
Express your answer as a number followed by its unit.

Req: Look up GI50: `COc1cc2c3c(n(CCCNCCCNCCCNCCCN)c(=O)c2cc1OC)-c1cc2c(cc1C3=O)OCO2.Cl.Cl.Cl.Cl`
Resp: 1700 nM

Req: Look up GI50: `COc1cc2c3c(n(CCN)c(=O)c2cc1OC)-c1cc2c(cc1C3=O)OCO2.Cl`
Resp: 140 nM

Req: Look up GI50: `COc1cc2c3c(n(CCCNCCNCCCN)c(=O)c2cc1OC)-c1cc2c(cc1C3=O)OCO2.Cl.Cl.Cl`
Resp: 1900 nM

Req: Look up GI50: `COc1cc2c3c(n(CCCNCCNCCN)c(=O)c2cc1OC)-c1cc2c(cc1C3=O)OCO2.Cl.Cl.Cl`
Resp: 2600 nM

---

Tested on: OVCAR-3
Test: Cytotoxicity against human ovarian OVCAR-3 cancer cell lines.
Type: functional
Please go through the items and note down their log10 of GI50.
Base-10 log of GI50, unit µM.

Req: Look up log10 of GI50: `COc1cc2c3c(n(CCCN(CCO)CCO)c(=O)c2cc1OC)-c1cc2c(cc1C3=O)OCO2.Cl`
Resp: -0.89

Req: Look up log10 of GI50: `COc1cc2c3c(n(CCCNCCNCCCN)c(=O)c2cc1OC)-c1cc2c(cc1C3=O)OCO2.Cl.Cl.Cl`
Resp: 0.91

Req: Look up log10 of GI50: `COc1cc2c3c(n(CCCNCCNCCN)c(=O)c2cc1OC)-c1cc2c(cc1C3=O)OCO2.Cl.Cl.Cl`
Resp: 0.23

Req: Look up log10 of GI50: `COc1cc2c3c(n(CCCNCCCNCCCN)c(=O)c2cc1OC)-c1cc2c(cc1C3=O)OCO2.Cl.Cl.Cl`
Resp: -0.06

Req: Look up log10 of GI50: `C[C@@]1(O)C(=O)OCc2c1cc1n(c2=O)Cc2cc3ccccc3nc2-1`
Resp: -0.66

Req: Look up log10 of GI50: `COc1cc2c3c(n(CCCNCC(OC)OC)c(=O)c2cc1OC)-c1cc2c(cc1C3=O)OCO2`
Resp: 0.84

Req: Look up log10 of GI50: `COc1cc2c3c(n(CCCNCCCN)c(=O)c2cc1OC)-c1cc2c(cc1C3=O)OCO2`
Resp: 0.49

Req: Look up log10 of GI50: `COc1cc2c3c(n(CCCNCCCNCCCNCCCN)c(=O)c2cc1OC)-c1cc2c(cc1C3=O)OCO2.Cl.Cl.Cl.Cl`
Resp: 0.20

---

Tested on: OVCAR-3
Test: Cytotoxicity against human ovarian OVCAR-3 cancer cell lines.
Assay type: functional
endpoint.label: GI50 (nM)
A number alone suffices; assume nM.

Req: Look up GI50: `COc1cc2c3c(n(CCN)c(=O)c2cc1OC)-c1cc2c(cc1C3=O)OCO2.Cl`
Resp: 860

Req: Look up GI50: `COc1cc2c3c(n(CCCN(C)C)c(=O)c2cc1OC)-c1cc2c(cc1C3=O)OCO2`
Resp: 1400

Req: Look up GI50: `COc1cc2c3c(n(CCCOC(=O)C(F)(F)F)c(=O)c2cc1OC)-c1cc2c(cc1C3=O)OCO2`
Resp: 70

Req: Look up GI50: `COc1cc2c3c(n(CCCNCCCNCCN)c(=O)c2cc1OC)-c1cc2c(cc1C3=O)OCO2.Cl.Cl.Cl`
Resp: 20000

Req: Look up GI50: `COc1cc2c3c(n(CCCNCCN)c(=O)c2cc1OC)-c1cc2c(cc1C3=O)OCO2.Cl.Cl`
Resp: 700

Req: Look up GI50: `COc1cc2c3c(n(CCN(C)C)c(=O)c2cc1OC)-c1cc2c(cc1C3=O)OCO2.O=CO`
Resp: 10000
